study-target: Adrenergic receptor alpha (Rattus norvegicus) (UniProt P15823+P23944+P43140+P22086+P19328+P22909)
experimental-details: Binding affinity to alpha adrenergic receptors in rat aorta
Format: tissue-based
measure: pD2
Just the number, please, no unit attached.

stdin: Give the value of pD2 reported for the following: NCC(O)c1ccc(O)c(Cl)c1 (centres undefined)
stdout: 5.85

stdin: Report measured pD2; entry is CCc1cc(C(O)CN)ccc1O (centres undefined)
stdout: 6.09

stdin: // fetch pD2 given entry NCC(O)c1ccc(O)cc1 (centres undefined)
stdout: 6.08

stdin: Kindly indicate its recorded pD2. Item: Cc1cc(C(O)CN)ccc1O (centres undefined)
stdout: 5.96
